PROTOCOL_DETAILS: Viability qHTS for spleen associated tyrosine kinase inhibitor (SYKi) drug resistant MV4-11 cells (AID 1963824); also: nearly all actives have a fitted effect of over 35% in size
TEST_PARAMETERS: SYKi-resistant MV4-11 viability, CellTiter-Glo, 72 h; series mostly up to 45 µM
Inconclusive results are not listed. Active and inactive are the calls of the source. Calls follow the shape of the dose curve; as a rule, active = well fitted cell-killing curve with a large enough effect; inconclusive = small, poorly fitted or top-dose-only effect, or effect the other way; inactive = no such curve, though single readings can be large or run the other way.
Classes used: active, inactive

COc1c2c(c(C)c3c1C(=O)OC3)OC1(C)CC(O)C34OC(OC)(CCC3(C)C1C2)OC4(C)CO (stereo not drawn) ... inactive
C[C@@H](NC(=O)[C@H](O)c1cc(F)cc(F)c1)C(=O)N[C@@H]1C(=O)N(C)c2ccccc2-c2ccccc21 ... active
COc1ccc(Oc2cc(C)c(-c3csc(NC(=O)c4ccncc4)n3)c(C)c2)cc1 ... active
CCC(C)C(=O)O[C@H]1CCC=C2C=C[C@H](C)[C@H](CC[C@@H](O)C[C@@H](O)CC(=O)O)[C@H]21 (stereo partly drawn) ... active
C/C(CO)=C1/CCC23COC(C2)C(O)(C(=O)O)CCC13 (stereo not drawn) ... inactive
CC1(C)OC(=O)C(OCC2CC2)=C1c1ccc(S(C)(=O)=O)cc1 ... inactive
CC(=O)O[C@]1(C(C)=O)CC[C@H]2[C@@H]3C=C(Cl)C4=CC(=O)CC[C@]4(C)[C@H]3CC[C@@]21C ... active
Cc1cc(C)cc(OCC2CNC(=O)O2)c1 (stereo not drawn) ... inactive
OC(c1ccc(-c2ccc(CN3CCN(Cc4ccncc4)CC3)cc2)c(F)c1)(C(F)(F)F)C(F)(F)F ... active
CCC(C)(Oc1ccc(C2(c3ccc(OC(C)(CC)C(=O)O)cc3)CCCCC2)cc1)C(=O)O (stereo not drawn) ... inactive
CC1(C)OC(=O)Nc2ccc(Br)cc21 ... inactive
C=CCc1cccc(/C=N/NC(=O)CN2CCN(Cc3ccccc3)CC2)c1O ... active
CC(C)(C)C(=O)C(Oc1ccc(Cl)cc1)n1ccnc1 (stereo not drawn) ... active
CCCOC(c1cc2nccc(C(=O)O)c2[nH]1)c1ccccc1Cl (stereo not drawn) ... inactive
CN[C@@H]1[C@H](O[C@H]2[C@H](O[C@@H]3[C@@H](O)[C@H](O)[C@@H](N=C(N)N)[C@H](O)[C@H]3N=C(N)N)O[C@@H](C)[C@]2(O)CO)O[C@@H](CO)[C@H](O)[C@H]1O ... inactive
C=CC1C(O[C@@H]2O[C@H](CO)[C@@H](O)[C@H](O)[C@H]2O)OC=C(C(=O)OC)C1Cc1nccc2c1[nH]c1ccccc12 (stereo partly drawn) ... active
COC(=O)Nc1ccc(-c2nc(N3CCOCC3)c3cnn(C4CCN(C(=O)OC)CC4)c3n2)cc1 ... active
CN(C)[C@@H](CCOc1cccc2ccccc12)c1ccccc1 ... active

====

PROTOCOL_DETAILS: Viability qHTS for spleen associated tyrosine kinase inhibitor (SYKi) drug resistant MV4-11 cells (AID 1963824); also: nearly all actives have a fitted effect of over 35% in size
TEST_PARAMETERS: SYKi-resistant MV4-11 viability, CellTiter-Glo, 72 h; series mostly up to 45 µM
Results filed as inconclusive are left out. The source made the active and inactive calls. Calls follow the shape of the dose curve; as a rule, active = well fitted cell-killing curve with a large enough effect; inconclusive = small, poorly fitted or top-dose-only effect, or effect the other way; inactive = no such curve, though single readings can be large or run the other way.
Classes used: active, inactive

CC/C=C/C(O)C(O)C1=C(C)C(=O)C2(O1)C(=O)NC(OC)(C(=O)c1ccccc1)C2O (centres undefined) ... inactive
Cn1cc(-c2ccc(-c3cncc(Cl)c3N3CCC4(CCNC4=O)CC3)cc2)cn1 ... active
CNC(=O)c1c(I)c(NC(C)=O)c(I)c(C(=O)O)c1I ... inactive
CC(C)n1cnc2c(NCc3cccc(C(F)(F)F)c3)ncnc21 ... active
CC(C)CC(c1c(O)c(C=O)c(O)c(C=O)c1O)C1CCC(C)(O)C2CC(C(C)(C)O)CCC12C (centres undefined) ... inactive
CN1C(=O)c2sccc2N(C)c2nc(Nc3ccc(S(N)(=O)=O)cc3)ncc21 ... active
O=C(OC[C@@]1(O)CO[C@@H](O[C@H]2[C@H](Oc3ccc(O)cc3)O[C@H](CO)[C@@H](O)[C@@H]2O)[C@@H]1O)c1ccc(O)cc1 ... inactive
CCOc1ncc(S(=O)(=O)N2CCN(CC)CC2)cc1-c1nc2c(CC)n(CCOC)nc2c(=O)[nH]1 ... inactive
COC(=O)C(Cc1ccc(OCCn2c(=O)sc3cc(C(=O)c4ccccc4)ccc32)cc1)C(=O)OC ... active
